Hi there, I'd appreciate the recorded pEC50 for every entry that follows.
# Tested on: Human orthopneumovirus
# Measurement notes: Antiviral activity against RSV A2 infected in HAE-derived cells
# Type: functional, organism-based
# Study conditions: human respiratory syncytial virus
Give bare numbers, as −log10 of the molar value.

CNc1nc(N)nc2c1ncn2[C@@H]1O[C@](C)(CO[P@@](=O)(N[C@@H](C)C(=O)OC(C)C)Oc2ccccc2)[C@@H](O)[C@H]1F | 10.28

Next:
Prompt: GET /values?readout=pEC50&item= Cc1ccc([C@]23Cn4cccc4C(=O)N2CCN3C(=O)c2conc2C)cn1
Response: 8.08

====

# System: Respiratory syncytial virus
# Measurement notes: Antiviral activity against Respiratory syncytial virus
# Format: functional, organism-based
# Study conditions: human respiratory syncytial virus
Measured attribute: pEC50
One number for each entry, as −log10 of the molar value.

Example molecules with recorded pEC50:
Cc1ccc(NS(C)(=O)=O)c(C(=O)N2CCCC[C@H]2c2cc3nc4c(c(N5CCOCC5)n3n2)CCCC4)c1 | 9.25
CCc1ccc(NS(C)(=O)=O)c(C(=O)N(C)[C@@H](CC)c2cc3nc(N4CC[C@H](N)C4)c(C)cn3n2)c1 | 9.82
Cc1cccc2ncnc(N3CCCC[C@H]3c3cc4nc(N5CCC5)cc(N5CCOCC5)n4n3)c12 | 8.00

Prompt: If you can, please state the reported pEC50 value of CCc1cc(C(=O)N2CCc3sccc3[C@H]2C)nc2cc(-c3ccc(N4CC[C@H](C(=O)O)C4)cc3F)nn12 .
Response: 8.56
